# study_target: EZH2/SUZ12/EED complex (Homo sapiens, UniProt O75530+Q15022+Q15910)
# Sequence (Q15910 whole entry): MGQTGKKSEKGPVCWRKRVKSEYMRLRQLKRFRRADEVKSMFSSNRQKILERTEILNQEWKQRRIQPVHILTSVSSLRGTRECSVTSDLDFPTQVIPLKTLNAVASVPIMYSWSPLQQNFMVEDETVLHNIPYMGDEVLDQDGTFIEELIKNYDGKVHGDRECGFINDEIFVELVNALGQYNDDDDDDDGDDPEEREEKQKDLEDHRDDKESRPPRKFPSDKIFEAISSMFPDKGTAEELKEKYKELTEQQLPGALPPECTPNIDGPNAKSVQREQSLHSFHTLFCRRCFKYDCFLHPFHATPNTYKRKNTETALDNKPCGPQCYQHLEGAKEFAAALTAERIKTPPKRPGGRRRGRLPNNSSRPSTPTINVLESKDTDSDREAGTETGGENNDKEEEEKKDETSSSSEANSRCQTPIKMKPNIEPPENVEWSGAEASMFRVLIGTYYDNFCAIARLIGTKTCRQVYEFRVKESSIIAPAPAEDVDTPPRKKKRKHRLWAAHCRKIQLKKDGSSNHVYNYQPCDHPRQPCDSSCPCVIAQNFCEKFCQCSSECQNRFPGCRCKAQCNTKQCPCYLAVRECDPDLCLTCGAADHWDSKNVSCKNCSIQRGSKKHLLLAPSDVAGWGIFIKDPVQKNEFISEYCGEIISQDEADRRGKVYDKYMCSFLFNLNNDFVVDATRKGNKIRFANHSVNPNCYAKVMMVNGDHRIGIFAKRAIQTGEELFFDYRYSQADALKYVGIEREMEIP
# Sequence (O75530 whole entry): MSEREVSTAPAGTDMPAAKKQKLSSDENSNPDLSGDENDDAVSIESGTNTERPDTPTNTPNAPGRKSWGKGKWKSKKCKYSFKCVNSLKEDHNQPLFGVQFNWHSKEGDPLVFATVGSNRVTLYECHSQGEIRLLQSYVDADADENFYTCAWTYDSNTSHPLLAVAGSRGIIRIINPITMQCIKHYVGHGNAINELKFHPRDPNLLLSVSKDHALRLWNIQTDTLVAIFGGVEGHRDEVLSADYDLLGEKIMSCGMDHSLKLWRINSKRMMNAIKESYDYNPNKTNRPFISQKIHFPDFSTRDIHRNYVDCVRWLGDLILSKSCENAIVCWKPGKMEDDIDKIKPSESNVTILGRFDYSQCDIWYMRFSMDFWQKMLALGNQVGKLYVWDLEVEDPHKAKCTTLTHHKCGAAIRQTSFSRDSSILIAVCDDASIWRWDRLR
# Sequence (Q15022 whole entry): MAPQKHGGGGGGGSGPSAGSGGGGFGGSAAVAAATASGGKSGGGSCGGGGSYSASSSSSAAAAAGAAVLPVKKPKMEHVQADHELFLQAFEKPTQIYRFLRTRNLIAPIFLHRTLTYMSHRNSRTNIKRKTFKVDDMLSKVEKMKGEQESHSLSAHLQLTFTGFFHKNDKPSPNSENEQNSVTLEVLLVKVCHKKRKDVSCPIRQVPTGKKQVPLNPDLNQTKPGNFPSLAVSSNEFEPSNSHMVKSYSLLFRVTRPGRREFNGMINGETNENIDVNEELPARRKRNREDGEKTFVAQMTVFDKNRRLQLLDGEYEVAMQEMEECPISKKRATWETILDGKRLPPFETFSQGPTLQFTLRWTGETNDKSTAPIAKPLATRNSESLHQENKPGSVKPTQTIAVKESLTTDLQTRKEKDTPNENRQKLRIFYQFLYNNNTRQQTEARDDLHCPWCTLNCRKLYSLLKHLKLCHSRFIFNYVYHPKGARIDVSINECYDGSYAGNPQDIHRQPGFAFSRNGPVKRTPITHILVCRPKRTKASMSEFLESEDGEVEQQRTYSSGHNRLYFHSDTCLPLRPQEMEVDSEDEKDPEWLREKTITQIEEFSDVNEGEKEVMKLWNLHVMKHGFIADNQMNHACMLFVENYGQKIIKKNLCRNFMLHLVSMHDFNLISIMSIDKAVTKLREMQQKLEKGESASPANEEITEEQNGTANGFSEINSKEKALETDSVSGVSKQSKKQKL
# assay_comment: Inhibition of EZH2 histone methyltransferase activity in EZH2/SUZ12/EED protein complex (unknown origin) using histone H3 peptide/S-adenosylmethionine as substrate after 2 hrs by TR-FRET assay
pIC50: −log10 of the molar value.
Output fulfilled for pIC50 not less than 5; output not fulfilled otherwise.

molecule | class_assignment
Cc1coc2c1C(=O)C(=O)c1c-2ccc2c1CCCC2(C)CO (stereo unspecified) | fulfilled
Cc1coc2c1C(=O)C(=O)c1c-2ccc2c1CC[C@@H](O)[C@]2(C)O | fulfilled

Given Cc1coc2c1C(=O)C(=O)c1c-2ccc2c1CC[C@H](O)[C@]2(C)O , state whether its pIC50 is at least 5.
fulfilled

Could you verify whether the entry Cc1coc2c1C(=O)C(=O)c1c-2ccc2c1CCCC2(C)C shows pIC50 of no less than 5?
not fulfilled
